Tested on: A549/ATCC NSCLC
Test: NCI-60 one-dose screen, 48 h (100 = growth as untreated, 0 = no growth, -100 = all killed)
Conditions: 10 µM unless noted
About 83,000 compounds went through this panel and 20% of them were active in at least one assay; those are over-represented in the sample as a whole.
Provide the recorded growth for the entries that follow.
State just the number; it will be interpreted in %.

Inquiry: Under A549/ATCC NSCLC, report growth for CCOC(=O)CNS(=O)(=O)CC(=O)c1ccccc1
Reply text: 116

Inquiry: Answer briefly: growth recorded on A549/ATCC NSCLC for COc1ccc2c(c1)cn1c3ccc(O)cc3[nH]c(=O)c21
Reply text: 26.8

Inquiry: Write growth of C=CCN(C)C ; system used: A549/ATCC NSCLC
Reply text: 100

Inquiry: Under A549/ATCC NSCLC, report growth for COc1ccc(-c2cc(C#N)c(NNC(C)=O)[nH]2)cc1
Reply text: 115

Inquiry: Tell me its growth on A549/ATCC NSCLC: Nc1cc(N)c2nc(-c3ccccc3)c(NCCc3ccc(Cl)c(Cl)c3)nc2c1
Reply text: -62.8

Inquiry: Please look at O=C1NCCN1/N=C/c1c(Cl)nc2n1CCS2 and tell me its recorded growth on A549/ATCC NSCLC.
Reply text: 113

Inquiry: For A549/ATCC NSCLC, give the measured growth of the entry O=C(Nc1ccc(-n2cc(-c3ccncc3)c(-c3ccc(Cl)c(O)c3)n2)cc1)c1ccc(Cl)c(Cl)c1
Reply text: 43.6

Inquiry: Enter measured growth, system A549/ATCC NSCLC, for the compound shown: CC(C)OCC1CO1 (configuration not stated)
Reply text: 106

Inquiry: Write down the reported growth (system: A549/ATCC NSCLC) of COC(=O)C(C(=O)OC)C(Br)C(Br)C(Br)c1ccccc1 (configuration not stated)
Reply text: 96

Inquiry: // fetch growth for COc1ccc(-c2nc(N)n(C(=S)Nc3ccccc3)n2)cc1 ; system: A549/ATCC NSCLC
Reply text: 102

Inquiry: Name the value of growth reported for C/C(=N\Nc1cccc(Cl)n1)c1ccccn1 when tested on A549/ATCC NSCLC.
Reply text: 9.19

Inquiry: Answer with growth of Nc1ccc(S(=O)(=O)c2ccc(NO)cc2)cc1 measured for A549/ATCC NSCLC.
Reply text: 105

====

Kindly state growth for each of the entries shown.
Tested on: NCI-H322M lung
Assay: NCI-60 one-dose screen, 48 h (100 = growth as untreated, 0 = no growth, -100 = all killed)
Details: 10 µM unless noted
Method: Growth inhibition of the NCI-H322M human Non-Small Cell Lung tumor cell line is measured as a screen for anti-cancer activity. Cells are grown in 96 well plates and exposed to the test compound for 48 hours. Compounds are tested at a single concentration, which is 10^-5 M for most compounds. The reported endpoint is percent growth (GI% or GIPRCNT), where numbers from 0 - 100% represent growth inhibition, and numbers from -100% - 0 represent cell death. […]
About 83,000 compounds went through this panel and 20% of them were active in at least one assay; those are over-represented in the sample as a whole.
Supply the numeric figure in %, leaving out any unit text.

Inquiry: Query growth for C/C(=N\Nc1ccc(Cl)cn1)c1ccc2ccccc2n1
Reply text: 16.4

Inquiry: Look up and report measured growth for this entry: COc1cc(-c2nn(-c3ccc(NC(=O)Nc4ccc(Cl)c(Cl)c4)cc3)cc2-c2ccncc2)ccc1Cl
Reply text: 68.4

Inquiry: Fill in growth for record N=C(c1ccccc1)N(Cc1ccccc1)Cc1ccccc1
Reply text: 84

Inquiry: Give the value of growth reported for the following: CCC(C)(C)c1ccc(OCCCCCCN2CCNCC2)cc1
Reply text: 76.1

Inquiry: Report growth for CCOC(=O)C1=C(C(F)(F)F)NC(=S)NC1CN1C(=O)c2ccccc2C1=O (stereo unspecified)
Reply text: 103

Inquiry: Could you please provide reported growth for CCOC(=O)c1sc(NS(=O)(=O)c2ccccc2)nc1C ? Thanks!
Reply text: 122

Inquiry: Provide only the value of recorded growth for Clc1ccc(N/N=C(/c2ccccc2)c2ccccn2)nc1
Reply text: 39.8

Inquiry: Assign growth to the following record: CC(C)(C)c1ccc([I+]c2ccc(C(C)(C)C)cc2)cc1
Reply text: 55.8

Inquiry: Check the records and state growth for O=C(Nc1ccc(-n2cc(-c3ccncc3)c(-c3ccc(Cl)c(O)c3)n2)cc1)Nc1cc(C(F)(F)F)cc(C(F)(F)F)c1
Reply text: 41.9

Inquiry: For the molecule Nc1cc(N)c2nc(-c3ccccc3)c(NCCc3ccc(Cl)c(Cl)c3)nc2c1 , give its measured growth value.
Reply text: -91.7

Inquiry: Supply measured growth of OCCN1CCN(CC/C=C2/c3ccccc3Sc3ccc(C(F)(F)F)cc32)CC1 in your reply.
Reply text: 72.6

====

Tested on: UO-31 renal
Assay: NCI-60 one-dose screen, 48 h (100 = growth as untreated, 0 = no growth, -100 = all killed)
Conditions: 10 µM unless noted
About 83,000 compounds went through this panel and 20% of them were active in at least one assay; those are over-represented in the sample as a whole. Active and inactive are the calls of the source. Rule for the calls: active = growth percent below 10; inactive = the rest.
I'd appreciate it if you could supply growth values for the items below.

Inquiry: Name the recorded growth of the molecule listed here: Brc1ccc(-c2nc3ccccc3s2)cc1
Reply text: 59.5% (inactive)

Inquiry: Identify growth associated with the molecule CC1(C)NCCC[C@]2(C)[C@H]3CC=C4[C@@H]5C[C@](C)(COC(=O)c6ccccc6C(=O)O)CC[C@]5(C)CC[C@@]4(C)[C@]3(C)CC[C@@H]12
Reply text: 87.4% (inactive)

Inquiry: Give reported growth value for CCOC(=O)CCCCCCCCC(=O)OCC
Reply text: 95.7% (inactive)

Inquiry: Could you please provide reported growth for CCC(C)(CC)c1ccc(O)c(C)c1 ? Thanks!
Reply text: 102% (inactive)

Inquiry: # return recorded growth for input O=C(N/N=C/c1cc(Cl)ccc1O)C(=O)N/N=C/c1cc(Cl)ccc1O
Reply text: 48.2% (inactive)

Inquiry: Specify measured growth for CCCCCCCCCc1cc[n+](CC(=O)c2ccc([N+](=O)[O-])cc2)cc1 .
Reply text: 35% (inactive)

Inquiry: Write down growth measured for item COc1ccc(Cn2cc3c(c2-c2ccc(OC)cc2)CCc2cnoc2-3)cc1
Reply text: 25.7% (inactive)

Inquiry: Report growth, nothing else, for this molecule: CCCCCc1ccnc(CC(=O)c2ccc(OC)cc2)c1
Reply text: 79.6% (inactive)

Inquiry: Give growth for Nc1nc2c(c3cnccc13)C(c1ccc(Cl)c(Cl)c1)Cc1cnccc1-2 (stereo not drawn)
Reply text: -39.9% (active)

Inquiry: Indicate the recorded growth value for this molecule: c1ccc(Nc2ccccn2)cc1
Reply text: 88% (inactive)

Inquiry: Output measured growth for this item: CC(C)(C)OC(=O)N1C/C(=C\c2ccccc2)C(=O)/C(=C/c2ccccc2)C1
Reply text: 71.9% (inactive)

Inquiry: Quickly give me recorded growth for Clc1ccc(N/N=C(/c2ccccc2)c2ccccn2)nc1
Reply text: 28.3% (inactive)

Inquiry: Give the value of growth reported for the following: O=C(Nc1cccc(Cn2c(=O)[nH]c3ccc(Oc4ncccn4)cc3c2=O)c1)c1cccc(F)c1
Reply text: 58.9% (inactive)

Inquiry: Write down growth measured for item N=C(N)N=Nc1ccc(NN=C(N)N)c2ccccc12
Reply text: 69.6% (inactive)

Inquiry: Supply measured growth of COc1ccc(Cn2cc3c(c2-c2ccccc2)CCc2cnoc2-3)cc1N in your reply.
Reply text: 29.7% (inactive)

Inquiry: Entry COC(=O)[C@H](Cc1cn(C)cn1)NC(=O)[C@H](Cc1c[nH]c2ccccc12)NC(=O)Nc1cc(C(F)(F)F)cc(C(F)(F)F)c1 needs its growth filled in; supply it.
Reply text: 22.5% [100 µM] (inactive)

Inquiry: Please supply the value of reported growth for the item CCCCCCCCCCCCCCCCNC(=S)N/N=C/c1ccc(O)cc1O
Reply text: 49.8% (inactive)

Inquiry: Please report growth for the following molecule: CC(=O)Nc1ccc(CC#N)cc1Br
Reply text: 95% (inactive)

Inquiry: Look up and state reported growth for Oc1ccccc1/C=N/N=C\c1ccccc1Cl
Reply text: 40.5% (inactive)

Inquiry: Please look at this molecule and report its growth: CCOC(=O)NNc1[nH]c(-c2ccc(OC)cc2)cc1C#N
Reply text: 87.8% (inactive)

Inquiry: Identify measured growth associated with CCCCN(CCC)CCCCCCCCCCN1CCCc2ccccc21
Reply text: 54.3% (inactive)

Inquiry: Return reported growth. Input molecule: COC(=O)/C=C1/CCCCC1(C)C(=O)OC (stereo not drawn)
Reply text: 95.3% (inactive)

Inquiry: Retrieve growth measured for Cc1nc(NC(=S)Nc2ccc(F)cc2)sc1C(=O)NNC(=S)Nc1ccc(F)cc1 and print it.
Reply text: 38.7% (inactive)

====

Exercise: state measured growth for each of the compounds provided.
Tested on: OVCAR-3 ovarian
Test: NCI-60 one-dose screen, 48 h (100 = growth as untreated, 0 = no growth, -100 = all killed)
Conditions: 10 µM unless noted
This is part of a sample that, as a whole, favours compounds with a hit. Of some 83,000 tested, about 20% had one in any assay.
Give the value in % but do not write % after it.

Inquiry: Tell us which growth value is on record for O=S(=O)(O)c1ccc2c(c1)Sc1cc(S(=O)(=O)O)ccc1O2
Reply text: 122

Inquiry: Tell me measured growth for O=C(O)c1occ(Cl)c1Cl please.
Reply text: 118

Inquiry: Report growth for COc1ccc(-n2nnnc2-c2cn[nH]c2C(F)(F)F)cc1
Reply text: 104

Inquiry: State its growth: CCOC(=O)c1cc(C(=O)c2ccc(Br)cc2)n2cc(C)cc(C)c12
Reply text: 104

Inquiry: Give reported growth value for Cc1nn(-c2ccccc2)c(N)c1N=C1NC(=O)/C(=C/c2ccc(Cl)cc2)S1
Reply text: 68.8

Inquiry: Tell us which growth value is on record for O=C1CSC(c2ccccc2Cl)N1c1nnc(-c2ccncc2)o1 (stereo unspecified)
Reply text: 108

Inquiry: Determine its reported growth: O=C(Cc1ccccc1[N+](=O)[O-])c1ccc2c(c1)OCO2
Reply text: 103

Inquiry: State, in one line, measured growth of Cc1nc2c(nnn2-c2ccccc2)c2nc(-c3ccc(Cl)cc3)oc(=O)c12
Reply text: 118

Inquiry: Please indicate growth recorded for COc1ccc(/C=N/c2cc(C(C)(C)C)nn2-c2ccccc2)cc1
Reply text: 125

Inquiry: Find the measured growth of CN1C(=O)C(=Cc2coc3ccc(Br)cc3c2=O)C(=O)N(C)C1=O and report it.
Reply text: 105

Inquiry: Give a short answer stating reported growth for O=C(Nc1cccc2[nH]c(C(F)(F)F)nc12)c1ccc(F)cc1 .
Reply text: 66
